Every entry's value here was drawn from patent US5591741A.

Quick reference: disease control rating PIP of the listed items.
- Test system: Phytophthora infestans
- Type: in vivo
- measurement-conditions: tomato, direct protectant foliar spray

compound: CCCCCN(C1CCCCC1)C1COC2(CCC(C(C)(C)C)CC2)C1 (centres unmarked) [Compound 77]
measured-attribute: disease control rating PIP
reported-result: 0 (less than 50% disease control)
--
compound: CCCCCCNCC1COC2(CCC(C(C)(C)C)CC2)C1 (centres unmarked) [Compound 184]
measured-attribute: disease control rating PIP
reported-result: 0 (less than 50% disease control)
--
compound: CC(C)(C)C1CCC2(CC1)CC(NCc1ccccc1)CO2 (centres unmarked) [Compound 31]
measured-attribute: disease control rating PIP
reported-result: 0 (less than 50% disease control)

What measured disease control rating PIP goes with CC(C)N(CCC1CCCCC1)C1COC2(CCC(C(C)(C)C)CC2)C1 (centres unmarked) [Compound 122] ?
0 (less than 50% disease control)

Item: CCCCCN(CCC)C1COC2(CCC(C(C)(C)C)CC2)C1 (centres unmarked) [Compound 73]
0 (less than 50% disease control)

====

- System: Botrytis cinerea
- assay-explanation: Direct protectant activity against broad bean grey mould (BCB)
- Type: in vivo
- measurement-conditions: direct protectant foliar spray, 600 ppm, 4 days
measured-attribute: disease control rating BCB

Example cases with answers are listed next.
compound: CC(C)(C)C1CCC2(CC1)CC(N1CCc3ccccc3C1)CO2 (stereo not drawn)
measured-attribute: disease control rating BCB
reported-result: 2 (greater than 80% disease control)
--
compound: CC(C)(C)CCNC1COC2(CCC(C(C)(C)C)CC2)C1 (stereo not drawn)
measured-attribute: disease control rating BCB
reported-result: 1 (about 50-80% disease control)
--
compound: CCCCCCCCNC1COC2(CCC(C(C)(C)C)CC2)C1 (stereo not drawn)
measured-attribute: disease control rating BCB
reported-result: 1 (about 50-80% disease control)
--
compound: CCCCCNC1COC2(CCC(C(C)(C)C)CC2)C1 (stereo not drawn)
measured-attribute: disease control rating BCB
reported-result: 1 (about 50-80% disease control)
--
compound: CCCCCN(CC(C)C)C1COC2(CCC(C(C)(C)C)CC2)C1 (stereo not drawn)
measured-attribute: disease control rating BCB
reported-result: 2 (greater than 80% disease control)

What measured disease control rating BCB goes with CC(C)CN(C)C1COC2(CCC(C(C)(C)C)CC2)C1 (stereo not drawn) ?
0 (less than 50% disease control)

Item: CCCN(CC1(C)CCCCC1)C1COC2(CCC(C(C)(C)C)CC2)C1 (stereo not drawn)
0 (less than 50% disease control)

Item: CCCCCN(CCC)C1COC2(CCC(C(C)(C)C)CC2)C1 (stereo not drawn)
1 (about 50-80% disease control)

Item: CC(C)(C)C1CCC2(CC1)CC(N1CCCCC1)CO2 (stereo not drawn)
2 (greater than 80% disease control)

====

- Tested on: Erysiphe graminis f.sp. hordei
- assay-explanation: Activity against barley powdery mildew, direct therapeutic (EGT)
- Assay type: in vivo
- measurement-conditions: direct therapeutic foliar spray, 600 ppm, up to 7 days
Quick reference: disease control rating EGT of the listed items.

Example cases with answers are listed next.
molecule: CC(C)(C)C1CCC2(CC1)CC(NCCC1=CCCCC1)CO2 (centres unmarked)
reported-result: 2 (greater than 80% disease control)
//
molecule: CCCCCN(CC)C1COC2(CCC(C(C)(C)C)CC2)C1 (centres unmarked)
reported-result: 2 (greater than 80% disease control)
//
molecule: CCCCCNC1COC2(CCC(C(C)(C)CC)CC2)C1 (centres unmarked)
reported-result: 2 (greater than 80% disease control)
//
molecule: CCCCCCCCCCCCCCCCCCNC1COC2(CCC(C(C)(C)C)CC2)C1 (centres unmarked)
reported-result: 2 (greater than 80% disease control)

Lookup: disease control rating EGT / Erysiphe graminis f.sp. hordei / CC(C)(C)C1CCC2(CC1)CC(NCCC1CCCCC1)CO2 (centres unmarked)
2 (greater than 80% disease control)

Item: CC1CN(C2COC3(CCCCC3)C2)CC(C)O1 (centres unmarked)
2 (greater than 80% disease control)

Item: CC(C)(C)C1CCC2(CC1)CC(N1CCC3CCCCC3C1)CO2 (centres unmarked)
2 (greater than 80% disease control)

Item: CC(C)(C)C1CCC2(CC1)CC(NCC1CCCCC1)CO2 (centres unmarked)
2 (greater than 80% disease control)

Item: CC(C)(C)C1CCC2(CC1)CC(Nc1ccccc1)CO2 (centres unmarked)
1 (about 50-80% disease control)

Item: CCCCCCCCNCC1COC2(CCC(C(C)(C)C)CC2)C1 (centres unmarked)
2 (greater than 80% disease control)

Item: CN(C)C1COC2(CCC(C(C)(C)C)CC2)C1 (centres unmarked)
2 (greater than 80% disease control)

Item: CC(C)(C1CCCCC1)C1CCC2(CC1)CC(NC1CCCCC1)CO2 (centres unmarked)
2 (greater than 80% disease control)

Item: CC(C)(C)C1CCC2(CC1)CC(N1CCCCC1)CO2 (centres unmarked)
2 (greater than 80% disease control)

Item: CN(C1CCCCC1)C1COC2(CCC(C(C)(C)C)CC2)C1 (centres unmarked) [Compound 80]
2 (greater than 80% disease control)

Item: CC(C)(C)C1CCC2(CC1)CC(Nc1ccc(Cl)cc1)CO2 (centres unmarked)
0 (less than 50% disease control)

Item: CC(C)CN(CC(C)C)C1COC2(CCC(C(C)(C)C)CC2)C1 (centres unmarked)
2 (greater than 80% disease control)

Item: CCCCCCN(C)C1COC2(CCCCC2)C1 (centres unmarked)
2 (greater than 80% disease control)

Item: CC(C)(C)C1CCC2(CC1)CC(N1CCOCC1)CO2 (centres unmarked)
0 (less than 50% disease control)

Item: CC(C)(C)CNC1COC2(CCC(C(C)(C)C)CC2)C1 (centres unmarked)
2 (greater than 80% disease control)

Item: CCN(CC1(C)CCCCC1)C1COC2(CCC(C(C)(C)C)CC2)C1 (centres unmarked)
2 (greater than 80% disease control)

====

- Test system: Phytophthora infestans
- Format: in vivo
- measurement-conditions: tomato, direct protectant foliar spray
Quick reference: disease control rating PIP of the listed items.

compound: CCCCCCNC1COC2(CCC(C(C)(C)C)CC2)C1 (stereo not drawn) [Compound 27]
disease control rating PIP: 0 (less than 50% disease control)

compound: CCCCCN(C)C1COC2(CCC(C(C)(C)C)CC2)C1 (stereo not drawn)
disease control rating PIP: 0 (less than 50% disease control)

compound: CCCCNC1COC2(CCC(C(C)(C)C)CC2)C1 (stereo not drawn)
disease control rating PIP: 2 (greater than 80% disease control)

compound: CC(C)(C)C1CCC2(CC1)CC(NCc1ccc(F)cc1)CO2 (stereo not drawn)
disease control rating PIP: 0 (less than 50% disease control)

compound: CCC(C)(C)C1CCC2(CC1)CC(N1CC(C)OC(C)C1)CO2 (stereo not drawn)
disease control rating PIP: 0 (less than 50% disease control)

compound: CC(C)(C)CC(C)(C)NC1COC2(CCC(C(C)(C)C)CC2)C1 (stereo not drawn)
disease control rating PIP: 2 (greater than 80% disease control)

Lookup: disease control rating PIP / Phytophthora infestans / CC(C)(C)C1CCC2(CC1)CC(CNC1CCCCC1)CO2 (stereo not drawn) [Compound 182]
0 (less than 50% disease control)

Item: CCCCCCCCCCCCCCNC1COC2(CCC(C(C)(C)C)CC2)C1 (stereo not drawn)
0 (less than 50% disease control)

Item: CC1CCC(NC2COC3(CCC(C(C)(C)C)CC3)C2)CC1 (stereo not drawn)
0 (less than 50% disease control)

====

- Test system: Botrytis cinerea
- assay-explanation: Direct protectant activity against broad bean grey mould (BCB)
- Format: in vivo
- measurement-conditions: direct protectant foliar spray, 600 ppm, 4 days
- Experimental: (c) Direct protectant activity against broad bean grey mould (Botrytis cinerea; BCB) The test is a direct protectant foliar spray. […] Disease is assessed 4 days after inoculation, based on the percentage of leaf surface area covered by lesions. The extent of disease control in all the above tests is expressed as a rating compared with either an untreated control or a diluent-sprayed-control, according to the criteria: […]
measured-attribute: disease control rating BCB

What measured disease control rating BCB goes with CCC(C)(C)C1CCC2(CC1)CC(NC1CCCCC1)CO2 (stereo not shown) [Compound 51] ?
0 (less than 50% disease control)

====

- Tested on: Phytophthora infestans
- Assay type: in vivo
- measurement-conditions: tomato, direct protectant foliar spray
measured-attribute: disease control rating PIP

compound: CC(C)(C)C1CCC2(CC1)CC(CCNC1CCCCC1)CO2 (centres unmarked)
system: Phytophthora infestans
disease control rating PIP: 1 (about 50-80% disease control)
//
compound: CN(C1COC2(CCC(C(C)(C)C)CC2)C1)C1CC2CCC1C2 (centres unmarked)
system: Phytophthora infestans
disease control rating PIP: 0 (less than 50% disease control)
//
compound: CC1CCCCC1NC1COC2(CCC(C(C)(C)C)CC2)C1 (centres unmarked)
system: Phytophthora infestans
disease control rating PIP: 2 (greater than 80% disease control)
//
compound: CCCCCCCCNCC1COC2(CCC(C(C)(C)C)CC2)C1 (centres unmarked)
system: Phytophthora infestans
disease control rating PIP: 1 (about 50-80% disease control)

// moving on: another record for disease control rating PIP
Lookup: disease control rating PIP / Phytophthora infestans / CN(C1CCCCC1)C1COC2(CCC(C(C)(C)C)CC2)C1 (centres unmarked) [Compound 80]
2 (greater than 80% disease control)
